Where these numbers come from: patent US7432260B2

# system-under-test: CDK2/cyclin A (Homo sapiens, UniProt P24941)
# run-description: Kinase assay CDK2/cyclin A
# Format: biochemical
# assay-context: Table 2; read-out: Kinase Inhibition IC50 CDK2 cyclin A
observed-property: IC50 (nM)

a. Cc1nc(NC(=O)CNCCOCCO)sc1-c1ccnc(Nc2ccc(N(C)C)cc2)n1
b. Cc1nc(NC(=O)CCNCCN2CCOCC2)sc1-c1ccnc(Nc2ccc(Cl)cc2)n1
Param metric = IC50; output whichever of a , b has the minimum value. Give the label of your selection.
a

1. CC(=O)N(C)c1ccc(Nc2nccc(-c3sc(C)nc3C)n2)cc1
2. Cc1nc(N2CCOCC2)sc1-c1ccnc(Nc2ccc(N(C)C)cc2)n1
API: POST /compare with 1 and 2 ; response names the item with higher IC50. Give the label of your selection.
2

A. CCNc1nc(C)c(-c2ccnc(Nc3cccc(CO)c3)n2)s1
B. Cc1nc(C)c(-c2ccnc(Nc3ccc(NC(=O)CN4CCOCC4)cc3)n2)s1
C. Cc1nc(C)c(-c2ccnc(Nc3ccc(N4CCN(CCCO)CC4)cc3)n2)s1
Endpoint returns the given compounds ordered by ascending IC50. # list labels per requested ordering
A, C, B
(A: 61 nM, C: 1100 nM, B: 2900 nM)

I. Cc1nc(C)c(-c2ccnc(Nc3ccc(N4CCN(C)CC4)cc3)n2)s1
II. CNc1nc(C)c(-c2ccnc(Nc3cccc(CO)c3)n2)s1
Param metric = IC50; output whichever of I , II has the minimum value. Give the label of your selection.
II
(II: 100 nM, I: 1000 nM)

###

# system-under-test: CDK4/cyclin D1 (Homo sapiens, UniProt P11802)
# Sequence (P11802 whole entry): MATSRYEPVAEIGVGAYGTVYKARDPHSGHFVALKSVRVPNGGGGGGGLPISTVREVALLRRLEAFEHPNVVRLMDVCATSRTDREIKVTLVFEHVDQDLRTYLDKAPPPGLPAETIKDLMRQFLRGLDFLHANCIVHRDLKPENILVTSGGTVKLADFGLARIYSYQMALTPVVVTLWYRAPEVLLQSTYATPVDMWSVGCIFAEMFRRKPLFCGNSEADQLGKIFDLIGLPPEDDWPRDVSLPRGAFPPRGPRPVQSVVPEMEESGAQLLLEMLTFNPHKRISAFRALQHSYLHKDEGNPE
# Sequence (P24385 whole entry partner): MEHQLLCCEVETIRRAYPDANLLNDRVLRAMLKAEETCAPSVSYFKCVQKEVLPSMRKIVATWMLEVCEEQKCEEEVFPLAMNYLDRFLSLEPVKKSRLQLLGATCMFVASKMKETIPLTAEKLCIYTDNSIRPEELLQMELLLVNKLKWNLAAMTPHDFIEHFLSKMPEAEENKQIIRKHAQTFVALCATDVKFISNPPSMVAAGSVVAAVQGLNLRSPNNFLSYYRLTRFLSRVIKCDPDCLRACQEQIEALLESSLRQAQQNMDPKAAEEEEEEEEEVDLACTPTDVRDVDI
# run-description: Kinase assay CDK4/cyclin D1
# Format: biochemical
# assay-context: Table 2; read-out: Kinase Inhibition IC50 CDK4 cyclin D1
observed-property: IC50 (nM)

Solved cases below.
{"smiles-string": "CNc1nc(C)c(-c2ccnc(Nc3ccc(N4CCOCC4)cc3)n2)s1", "system-under-test": "CDK4/cyclin D1 (Homo sapiens, UniProt P11802)", "result-units": "nM", "measurement": 1400}
{"smiles-string": "CC(=O)NCc1cccc(Nc2nccc(-c3sc(C)nc3C)n2)c1", "system-under-test": "CDK4/cyclin D1 (Homo sapiens, UniProt P11802)", "result-units": "nM", "measurement": 630}
{"smiles-string": "Cc1nc(NC(=O)CCl)sc1-c1ccnc(Nc2ccc(Cl)cc2)n1", "system-under-test": "CDK4/cyclin D1 (Homo sapiens, UniProt P11802)", "result-units": "nM", "measurement": 7000}

I. CCNc1nc(C)c(-c2ccnc(Nc3cccc(CO)c3)n2)s1
II. Cc1nc(N2CCOCC2)sc1-c1ccnc(Nc2ccc(N3CCOCC3)cc2)n1
III. Cc1nc(C)c(-c2ccnc(Nc3ccc(N4CCN(S(C)(=O)=O)CC4)cc3)n2)s1
Endpoint returns the given compounds ordered by ascending IC50. # list labels per requested ordering
II, I, III

P. Cc1nc(C)c(-c2ccnc(Nc3ccc(S(C)(=O)=O)cc3)n2)s1
Q. CCNc1nc(C)c(-c2ccnc(Nc3cccc(CN)c3)n2)s1
R. Cc1nc(C)c(-c2ccnc(Nc3ccc(NC(=O)Cn4ccnc4)cc3)n2)s1
S. Cc1nc(C)c(-c2ccnc(Nc3ccc(N4CCNCC4)cc3)n2)s1
Endpoint returns the given compounds ordered by ascending IC50. # list labels per requested ordering
R, Q, S, P

I. CC(=O)N1CCN(c2ccc(Nc3nccc(-c4sc(C)nc4C)n3)cc2)CC1
II. CC(=O)N(C)c1ccc(Nc2nccc(-c3sc(C)nc3C)n2)cc1
Param metric = IC50; output whichever of I , II has the minimum value. Give the label of your selection.
I
(I: 1700 nM, II: 2600 nM)

###

# System: HL60
# run-description: 72-h MTT cytotoxicity assay HL60
# Assay type: cell-based
# assay-context: Homo sapiens, HL-60, 72 h; Table 5; Promyelocytic leukaemia
Parameter: IC50. Scope: all listed entries.
Give the number; nM is assumed, so skip it.

{"smiles-string": "CNc1nc(C)c(-c2ccnc(Nc3ccc(N4CCN(Cc5ccccc5)CC4)cc3)n2)s1", "IC50 (nM)": 1700}
{"smiles-string": "Cc1nc(NC(=O)[C@H](N)[C@@H](C)O)sc1-c1ccnc(Nc2cccc([N+](=O)[O-])c2)n1", "IC50 (nM)": 2200}
{"smiles-string": "CC[C@@H](N)C(=O)Nc1nc(C)c(-c2ccnc(Nc3cccc([N+](=O)[O-])c3)n2)s1", "IC50 (nM)": 600}

We now examine a further molecule.
So what IC50 did Cc1nc(N)sc1-c1ccnc(Nc2ccc(N3CCOCC3)cc2)n1 get with HL60?
1800

###

# system-under-test: CDK4/cyclin D1 (Homo sapiens, UniProt P11802)
# run-description: Kinase assay CDK4/cyclin D1
# Type: biochemical
# assay-context: Table 3 selectivity panel; read-out: Kinase specificity IC50 CDK4/D1
# Description: Kinase assays. […] This was achieved by measurement of incorporation of radioactive phosphate from ATP into appropriate polypeptide substrates. Recombinant protein kinases and kinase complexes were produced or obtained commercially. […] After washing 3 times with 75 mM aq orthophosphoric acid, plates were dried, scintillant added and incorporated radioactivity measured in a scintillation counter (TopCount, Packard Instruments, Pangbourne, Berks, UK). […]
observed-property: IC50 (nM)
Give the number; nM is assumed, so skip it.

Solved cases below.
{"smiles-string": "CNc1nc(C)c(-c2ccnc(Nc3ccc(N4CCOCC4)cc3)n2)s1", "IC50 [nM]": 150}
{"smiles-string": "Cc1nc(NC(=O)[C@H](N)[C@@H](C)O)sc1-c1ccnc(Nc2cccc([N+](=O)[O-])c2)n1", "IC50 [nM]": 1600}
{"smiles-string": "CNc1nc(C)c(-c2ccnc(Nc3ccc(N4CCN(Cc5ccccc5)CC4)cc3)n2)s1", "IC50 [nM]": 9.8}

Any idea what IC50 was measured for CC[C@@H](N)C(=O)Nc1nc(C)c(-c2ccnc(Nc3cccc([N+](=O)[O-])c3)n2)s1 ?
6700

###

# system-under-test: CDK7/cyclin H (Homo sapiens, UniProt P50613)
# Sequence (P50613 whole entry): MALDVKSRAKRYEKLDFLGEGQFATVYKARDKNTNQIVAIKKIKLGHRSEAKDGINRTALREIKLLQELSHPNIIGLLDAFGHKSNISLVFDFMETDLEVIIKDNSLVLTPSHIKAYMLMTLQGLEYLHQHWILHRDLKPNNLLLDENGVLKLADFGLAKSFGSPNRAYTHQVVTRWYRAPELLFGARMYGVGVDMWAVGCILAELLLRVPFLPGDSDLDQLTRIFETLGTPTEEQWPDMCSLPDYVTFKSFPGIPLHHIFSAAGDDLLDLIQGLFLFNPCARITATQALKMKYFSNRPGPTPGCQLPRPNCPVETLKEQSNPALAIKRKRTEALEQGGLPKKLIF
# run-description: CDK7 assay
# Format: biochemical
# assay-context: Table 2; read-out: Kinase Inhibition IC50 CDK7 cyclin H
observed-property: IC50 (nM)

Solved cases below.
{"smiles-string": "Cc1nc(NC(=O)CCN2CCOCC2)sc1-c1ccnc(Nc2cccc([N+](=O)[O-])c2)n1", "observed-property": "IC50", "measurement": 200}
{"smiles-string": "Cc1nc(C)c(-c2ccnc(Nc3ccc(NC(=O)Cn4ccnc4)cc3)n2)s1", "observed-property": "IC50", "measurement": 2100}
{"smiles-string": "CCNc1nc(C)c(-c2ccnc(Nc3cccc(CNC(C)=O)c3)n2)s1", "observed-property": "IC50", "measurement": 590}
{"smiles-string": "CC(=O)NCc1cccc(Nc2nccc(-c3sc(C)nc3C)n2)c1", "observed-property": "IC50", "measurement": 2100}
{"smiles-string": "Cc1nc(C)c(-c2ccnc(Nc3ccc(NC(=O)CCl)cc3)n2)s1", "observed-property": "IC50", "measurement": 13000}

I. Cc1nc(C)c(-c2ccnc(Nc3ccc(N4CCN(CCO)CC4)cc3)n2)s1
II. Cc1nc(NC(=O)CCN2CCN(C)CC2)sc1-c1ccnc(Nc2cccc([N+](=O)[O-])c2)n1
III. Cc1nc(NC(=O)CCN2CCOCC2)sc1-c1ccnc(Nc2ccc(F)cc2)n1
Endpoint returns the given compounds ordered by ascending IC50. # list labels per requested ordering
II, I, III
(II: 810 nM, I: 1300 nM, III: 4900 nM)

###

# system-under-test: GSK-3β (Homo sapiens, UniProt P49841)
# Sequence (P49841 whole entry): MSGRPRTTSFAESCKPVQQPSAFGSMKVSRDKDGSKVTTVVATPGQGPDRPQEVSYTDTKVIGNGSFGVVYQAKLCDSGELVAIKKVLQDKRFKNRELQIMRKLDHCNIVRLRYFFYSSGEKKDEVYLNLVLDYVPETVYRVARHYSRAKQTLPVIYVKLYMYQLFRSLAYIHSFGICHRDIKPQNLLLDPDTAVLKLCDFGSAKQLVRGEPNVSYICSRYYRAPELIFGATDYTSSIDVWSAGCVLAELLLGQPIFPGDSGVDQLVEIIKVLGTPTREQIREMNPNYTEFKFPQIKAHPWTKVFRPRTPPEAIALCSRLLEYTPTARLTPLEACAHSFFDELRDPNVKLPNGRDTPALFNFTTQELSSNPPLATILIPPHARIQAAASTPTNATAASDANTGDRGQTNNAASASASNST
# run-description: Kinase assay GSK-3β
# Type: biochemical
# assay-context: Table 2; read-out: Kinase Inhibition IC50 GSK-3β
observed-property: IC50 (µM)

{"smiles-string": "CNc1nc(C)c(-c2ccnc(Nc3cccc(CNC(C)=O)c3)n2)s1", "system-under-test": "GSK-3β (Homo sapiens, UniProt P49841)", "result-units": "µM", "IC50": 8.8}

a. CNc1nc(C)c(-c2ccnc(Nc3ccc(CCO)cc3)n2)s1
b. CNc1nc(C)c(-c2ccnc(Nc3cccc(CNS(C)(=O)=O)c3)n2)s1
c. CNc1nc(C)c(-c2ccnc(Nc3ccc(OCCOC)c([N+](=O)[O-])c3)n2)s1
Order these by IC50, descending, and give the full ranking. # list labels per requested ordering
c, a, b

###

Parameter: pIC50. Scope: all listed entries.
# system-under-test: CDK7/cyclin H (Homo sapiens)
# run-description: CDK7 assay
# Format: biochemical
# assay-context: Table 3 selectivity panel; CDK7/cyclin H/MAT 1 complex; read-out: Kinase specificity IC50 CDK7/H
Please report pIC50 as the negative decimal logarithm of the molar concentration, giving only the number.

{"compound": "CC[C@@H](N)C(=O)Nc1nc(C)c(-c2ccnc(Nc3cccc([N+](=O)[O-])c3)n2)s1 [Compound 16]", "system-under-test": "CDK7/cyclin H (Homo sapiens)", "observed-property": "pIC50", "measurement": 6.01}
{"compound": "Cc1nc(N)sc1-c1ccnc(Nc2ccc(N3CCOCC3)cc2)n1 [Compound 1]", "system-under-test": "CDK7/cyclin H (Homo sapiens)", "observed-property": "pIC50", "measurement": 4.25}
{"compound": "CNc1nc(C)c(-c2ccnc(Nc3ccc(N4CCN(Cc5ccccc5)CC4)cc3)n2)s1 [Compound 11]", "system-under-test": "CDK7/cyclin H (Homo sapiens)", "observed-property": "pIC50", "measurement": 7.72}

We now examine a further compound.
Any idea what pIC50 was measured for Cc1nc(NC(=O)[C@H](N)[C@@H](C)O)sc1-c1ccnc(Nc2cccc([N+](=O)[O-])c2)n1 [Compound 15] ?
6.41
